- Assay system: 3H-nitrendipine binding, membrane preparation from the cortex of the rat brain
- Experimental protocol: displacement of tritium-labeled nitrendipine from rat brain cortex membranes (calcium-antagonistic activity)
- Condition summary: 3H-nitrendipine 0.1 nM, TRIS buffer pH 7.4, 25° C., 60 minutes; read-out: IC50 (displacement of 50% of the radioactively labeled nitrendipine)
compounds and their reported pIC50
pIC50 here is simply -log10 of the concentration when that concentration is written in mol/L.

Use these answered entries as a reference point.
>>> endpoint_value("Fc1ccc(C(CCCN2CCC(CCOc3cccc4cnccc34)CC2)c2ccc(F)cc2)cc1")
7.92
>>> endpoint_value("Fc1ccc(C(CCCN2CCN(CCOc3cc(C(F)(F)F)cc(C(F)(F)F)c3)CC2)c2ccc(F)cc2)cc1")
8.70
>>> endpoint_value("CC(=O)c1ccccc1OCCN1CCN(CCCC(c2ccc(F)cc2)c2ccc(F)cc2)CC1")
7.92
>>> endpoint_value("Cc1ccc(OCCN2CCN(CCCC(c3ccc(F)cc3)c3ccc(F)cc3)CC2)cc1")
7.92
>>> endpoint_value("Fc1ccc(C(CCCN2CCC(CCOc3ccc(C(F)(F)F)cc3)CC2)c2ccc(F)cc2)cc1")
8.38
>>> endpoint_value("CN(CCCC(c1ccc(F)cc1)c1ccc(F)cc1)C1CCN(CCOc2cccc3cnccc23)CC1")
6.40
>>> endpoint_value("Fc1ccc(C(CCCN2CCN(CCOc3cccc4ncccc34)CC2)c2ccc(F)cc2)cc1")
7.19
>>> endpoint_value("CSc1ccc(OCCN2CCN(CCCC(c3ccc(F)cc3)c3ccc(F)cc3)CC2)cc1")
8.05
>>> endpoint_value("Fc1ccc(C(CCCN2CCC(CCOc3cccc(C(F)(F)F)c3)CC2)c2ccc(F)cc2)cc1")
9.00
>>> endpoint_value("CN(C)S(=O)(=O)c1ccc(OCCN2CCN(CCCC(c3ccc(F)cc3)c3ccc(F)cc3)CC2)cc1")
7.15

stdin: Fill in: pIC50 on 3H-nitrendipine binding, membrane preparation from the cortex of the rat brain, entry `CC(=O)c1cccc(OCCN2CCN(CCCC(c3ccc(F)cc3)c3ccc(F)cc3)CC2)c1`
stdout: 7.72

stdin: Provide pIC50, system 3H-nitrendipine binding, membrane preparation from the cortex of the rat brain, entry NC(=O)C1CN(CCOc2ccccc2)CCN1CCCC(c1ccc(F)cc1)c1ccc(F)cc1 (stereo not drawn)
stdout: 6.74

stdin: Please respond with reported pIC50 (system 3H-nitrendipine binding, membrane preparation from the cortex of the rat brain) for `Fc1ccc(C(CCCN2CCN(CCOc3ccc(Br)cc3)CC2)c2ccc(F)cc2)cc1` .
stdout: 8.44

====

The entries below come with measured IC50 values attached.
- Assay system: 3H-nitrendipine binding, membrane preparation from the cortex of the rat brain
- Experimental protocol: displacement of tritium-labeled nitrendipine from rat brain cortex membranes (calcium-antagonistic activity)
- Condition summary: 3H-nitrendipine 0.1 nM, TRIS buffer pH 7.4, 25° C., 60 minutes; read-out: IC50 (displacement of 50% of the radioactively labeled nitrendipine)

stdin: Dear colleague, please send me the reported IC50 for Fc1ccc(C(CCCN2CCN(CCOc3ccc(C(F)(F)F)cc3)CC2)c2ccc(F)cc2)cc1 [Example 50] when you can.
stdout: 4 nM

stdin: Supply measured IC50 of Fc1ccc(C(CCCN2CCN(CCOc3cccc4ccccc34)CC2)c2ccc(F)cc2)cc1 [Example 18] in your reply.
stdout: 48 nM

stdin: Give recorded IC50. Fc1ccc(C(CCCN2CCC(CCOc3ccccc3C(F)(F)F)CC2)c2ccc(F)cc2)cc1 [Example 73]
stdout: 1.2 nM

stdin: Give me measured IC50, please, for this compound: Fc1ccc(C(CCCN2CCN(CCOc3cccc(C(F)(F)F)c3)CC2)c2ccc(F)cc2)cc1 [Example 68]
stdout: 0.9 nM

stdin: Provide measured IC50 value, entry: Fc1ccc(C(CCCN2CCN(CCOC3CCCCC3)CC2)c2ccc(F)cc2)cc1 [Example 16]
stdout: 22 nM
